Listed here: items and their measured IN-GCN2 interaction (%).
experimental_system: IN-GCN2 interaction (6xHis-IN / GST-GCN2) (UniProt P04585+Q9P2K8)
Sequence (Q9P2K8 192-1024, other chains not shown): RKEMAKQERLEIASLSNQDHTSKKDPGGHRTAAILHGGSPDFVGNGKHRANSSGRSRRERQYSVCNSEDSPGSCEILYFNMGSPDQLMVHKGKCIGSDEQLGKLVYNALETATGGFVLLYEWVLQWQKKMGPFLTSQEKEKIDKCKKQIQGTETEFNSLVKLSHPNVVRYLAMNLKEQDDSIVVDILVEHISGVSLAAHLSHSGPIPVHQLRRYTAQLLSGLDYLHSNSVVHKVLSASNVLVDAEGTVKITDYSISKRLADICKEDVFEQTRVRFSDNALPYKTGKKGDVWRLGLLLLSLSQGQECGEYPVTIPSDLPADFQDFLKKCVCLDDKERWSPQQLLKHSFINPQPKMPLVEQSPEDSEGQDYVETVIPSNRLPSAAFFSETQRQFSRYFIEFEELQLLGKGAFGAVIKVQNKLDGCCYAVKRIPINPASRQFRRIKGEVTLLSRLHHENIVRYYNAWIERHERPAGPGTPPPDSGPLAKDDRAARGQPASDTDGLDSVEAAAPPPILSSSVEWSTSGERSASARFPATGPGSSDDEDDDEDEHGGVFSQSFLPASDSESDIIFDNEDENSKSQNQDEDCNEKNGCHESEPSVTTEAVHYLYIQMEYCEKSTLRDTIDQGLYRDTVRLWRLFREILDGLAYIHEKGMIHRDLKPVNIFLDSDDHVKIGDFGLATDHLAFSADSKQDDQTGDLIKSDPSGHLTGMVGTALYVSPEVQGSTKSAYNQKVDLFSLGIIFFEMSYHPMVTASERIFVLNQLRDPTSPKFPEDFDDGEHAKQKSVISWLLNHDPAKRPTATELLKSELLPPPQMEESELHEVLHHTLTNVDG
test: biochemical
Type: binding, HIV-1 IN; human GCN2
condition_label: screen, single dose 100 µM, single replicate; residual AlphaLISA signal normalized to DMSO control
The response must be a number in % with no trailing unit.

Check out these entries, answers already filled in.
COc1c(OC)c2c3c(nccc3c1OC)-c1cc(=O)c(OC)ccc1-2; 14.73
CCCCCC[C@@H]([C@@H](C)O)n1cnc2c(N)ncnc21; 111.18
COc1cc(O[C@@H]2O[C@H](CO)[C@@H](O)[C@H](O)[C@H]2O)c2c(c1)O[C@H](c1ccc(O)cc1)CC2=O; 92.73

Lab note: need IN-GCN2 interaction (%) with IN-GCN2 interaction (6xHis-IN / GST-GCN2) (UniProt P04585+Q9P2K8) for entry C=C1C(=O)O[C@@H]2/C=C(/CO)CC/C=C(/CO)C[C@@H](OC(=O)C(C)C)[C@@H]12 , please look it up.
56.21

Try this molecule too: C=C(NC(=O)C(=C)NC(=O)c1csc(C2=N[C@@H]3c4csc(n4)[C@H]4NC(=O)c5csc(n5)[C@H]([C@](C)(O)[C@@H](C)O)NC(=O)[C@H]5CSC(=N5)/C(=C/C)NC(=O)[C@H]([C@@H](C)O)NC(=O)c5csc(n5)[C@]3(CC2)NC(=O)[C@H](C)NC(=O)C(=C)NC(=O)C(=C)NC(=O)[C@H](C(C)C)N[C@@H]2C=Cc3c([C@H](C)O)cc(nc3[C@H]2O)C(=O)O[C@@H]4C)n1)C(N)=O
79.00

One more molecule: C[C@@H](N)C(=O)NC(CO)C(O)C(N)C=O.Cl (stereo partly drawn)
77.59

====

Each item that follows carries a reported log10(IC50).
experimental_system: IN-GCN2 interaction (6xHis-IN / GST-GCN2) (UniProt P04585+Q9P2K8)
test: biochemical
Assay type: binding, HIV-1 IN; human GCN2
condition_label: IC50, inhibition of IN-GCN2 interaction, SAR study, fresh dilutions from powder; at least three independent experiments
A difference of one corresponds to tenfold IC50; all values are log10 with IC50 in µM.

Data request, read-out log10(IC50), for O=C1c2c(O)ccc(O)c2C(=O)c2c(NCCCO)ccc(NCCCO)c21
1.11

Param item: CCOC(OCC)C(=O)OCC(=O)C1(O)Cc2c(O)c3c(c(O)c2C(OC2CC(N)C(O)C(C)O2)C1)C(=O)c1c(OC)cccc1C3=O (stereo not shown)
0.91

Do the same for CC(=O)Nc1ccc(Nc2ccc(NCCO)c3c2C(=O)c2c(O)ccc(O)c2C3=O)cc1 please
1.03

====

experimental_system: IN-GCN2 interaction (6xHis-IN / GST-GCN2) (UniProt P04585+Q9P2K8)
test: biochemical
Assay type: binding, HIV-1 IN; human GCN2
condition_label: screen, single dose 100 µM, single replicate; residual AlphaLISA signal normalized to DMSO control
IN-GCN2 interaction (%) for assorted molecules
// return numeric value only (unit: %, not printed)

The cases that follow already have their IN-GCN2 interaction (%) on record.
CC(C)=CCc1ccc(O)c(=O)cc1C(C)C; 101.87
COc1cc(/C=C/C(=O)CC(=O)/C=C/c2ccc(O)c(OC)c2)ccc1O; 15.01
CC(=O)OC1C2(CC3N4C(=O)C5(CO)SSC4(CC31O)C(=O)N5C)OC(C)C(C)(C)C2=O (centres unmarked); 104.55
CC(=O)O[C@@H]1[C@@H](O)C2=C3[C@]4(C)[C@@H]1C(C)(C)C(=O)C[C@@H]4[C@]3(O)[C@H](OC(C)=O)[C@@]1(C[C@@H]1C)C2=O; 122.29
COC1=CC(=O)C(C)=CC1=O; 99.07

Item: O=C1C(O)=C(c2ccccc2)C(=O)C(O)=C1c1ccccc1 Test system: IN-GCN2 interaction (6xHis-IN / GST-GCN2) (UniProt P04585+Q9P2K8) Read-out: IN-GCN2 interaction (%) Value: ?
117.13

Input CC1(C)O[C@H]2CC(=O)OC[C@]23[C@H]2CC[C@@]4(C)[C@H](c5ccoc5)OC(=O)[C@H]5O[C@]54[C@]2(C)C(=O)C[C@@H]13
112.07

Proceed to C[C@]12CC[C@H](O)C[C@H]1CC[C@@H]1[C@@H]2CC[C@]2(C)[C@@H](C3=CC(=O)OC3)CC[C@]12O
101.32

Ref: paper PMC12390684
